Listed here are binders together with their documented IC50.
ASSAY SYSTEM: T1, recombinant mature dimeric myostatin (human and mouse (mature sequences 100% …, UniProt O08689 268-376))
T1 construct: also called GDF-8; mature myostatin
T1 sequence: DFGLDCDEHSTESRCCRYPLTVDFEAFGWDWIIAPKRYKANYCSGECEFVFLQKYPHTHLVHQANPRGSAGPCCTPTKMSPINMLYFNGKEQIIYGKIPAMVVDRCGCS
TEST DETAILS: ActRIIb neutralisation ELISA: inhibition of 2 nM biotinylated myostatin binding to coated ActRIIb
Provide only the numeric value, understood in nM.

Examples with their reported IC50 follow.
H6L4 (antibody, IgG1, V domains shown, Humanised IgG1/kappa) VH: QVQLVQSGAEVKKPGASVKISCKASGYSFTGYFMHWVRQAPGQGLEWIGNIYPYNGVSNYNQRFKAKATLTVDKSTSTAYMELRSLRSDDTAVYYCARRYYYGTGPADWYYDVWGQGTLVTVSS VL: DIQMTQSPSSLSASVGDRVTITCKASQDINSYLSWFQQKPGKAPKSLIYRANRLVDGVPSKFSGSGSGQDYTLTISSLQPEDFATYYCLQSDEFPLTFGQGTKLEIKR ... 0.225
H7L6 (antibody, IgG1, V domains shown, Humanised IgG1/kappa) VH: QVQLVQSGAEVKKPGASVKVSCKASGYSFTGYFMHWVRQAPGQGLEWMGNIYPYNSVSNYNQRFKARVTMTVDKSTSTAYMELRSLRSDDTAVYYCARRYYYGTGPADWYYDVWGQGTLVTVSS VL: DIQMTQSPSSLSASVGDRVTITCKASQDINSYLSWFQQKPGKAPKTLIYRANRLVDGVPSKFSGSGSGQDYTLTISSLQPEDFATYYCLQSDEFPLTFGQGTKLEIKR ... 0.031

The binder listed as H7L5 (antibody, IgG1, V domains shown, Humanised IgG1/kappa) VH: QVQLVQSGAEVKKPGASVKVSCKASGYSFTGYFMHWVRQAPGQGLEWMGNIYPYNSVSNYNQRFKARVTMTVDKSTSTAYMELRSLRSDDTAVYYCARRYYYGTGPADWYYDVWGQGTLVTVSS VL: DIQMTQSPSSLSASVGDRVTITCKASQDINSYLSWFQQKPGKAPKTLIYRANRLVDGVPSKFSGSGSGTDYTLTISSLQPEDFATYYCLQSDEFPLTFGQGTKLEIKR has a reported IC50 of 0.028
